Target: Kappa-type opioid receptor (Cavia porcellus) (UniProt P41144)
Sequence (P41144 whole entry): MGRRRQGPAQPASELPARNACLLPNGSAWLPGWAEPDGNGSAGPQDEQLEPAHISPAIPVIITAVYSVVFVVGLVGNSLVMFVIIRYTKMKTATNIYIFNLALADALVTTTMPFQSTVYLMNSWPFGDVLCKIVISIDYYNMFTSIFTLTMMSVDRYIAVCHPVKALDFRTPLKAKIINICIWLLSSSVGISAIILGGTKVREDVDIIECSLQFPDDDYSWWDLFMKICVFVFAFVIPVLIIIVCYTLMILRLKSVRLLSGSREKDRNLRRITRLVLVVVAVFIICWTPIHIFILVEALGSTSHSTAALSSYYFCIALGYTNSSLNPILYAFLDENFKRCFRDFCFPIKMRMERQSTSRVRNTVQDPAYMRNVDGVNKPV
Assay: Antagonistic activity against Opioid receptor kappa 1 in guinea pig ileum assay
Assay type: functional, tissue-based
Each item that follows carries a reported IC50 ratio.
READOUT_KIND: IC50 ratio

COMPOUND: Oc1ccc2c3c1O[C@H]1c4c(c5ccccc5n4Cc4ccc(N=C=S)cc4)C[C@@]4(O)C(C2)N(CC2CC2)CCC314 (stereo partly specified)
READOUT_KIND: IC50 ratio
VAL: 0.6
//
COMPOUND: CC(=O)Nc1ccc(Cn2c3c(c4ccccc42)C[C@@]2(O)C4Cc5ccc(O)c6c5C2(CCN4CC2CC2)[C@H]3O6)cc1 (stereo partly specified)
READOUT_KIND: IC50 ratio
VAL: 0.2
//
COMPOUND: O=C(CI)Nc1ccccc1Cn1c2c(c3ccccc31)C[C@@]1(O)C3Cc4ccc(O)c5c4C1(CCN3CC1CC1)[C@H]2O5 (stereo partly specified)
READOUT_KIND: IC50 ratio
VAL: 0.5
//
COMPOUND: O=C(CBr)Nc1ccccc1Cn1c2c(c3ccccc31)C[C@@]1(O)C3Cc4ccc(O)c5c4C1(CCN3CC1CC1)[C@H]2O5 (stereo partly specified)
READOUT_KIND: IC50 ratio
VAL: 1.1
//
COMPOUND: Oc1ccc2c3c1O[C@H]1c4c(c5ccccc5n4Cc4cccc(N=C=S)c4)C[C@@]4(O)C(C2)N(CC2CC2)CCC314 (stereo partly specified)
READOUT_KIND: IC50 ratio
VAL: 1.2
//
COMPOUND: CC(=O)Nc1cccc(Cn2c3c(c4ccccc42)C[C@@]2(O)C4Cc5ccc(O)c6c5C2(CCN4CC2CC2)[C@H]3O6)c1 (stereo partly specified)
READOUT_KIND: IC50 ratio
VAL: 0.9
//
COMPOUND: CC(=O)Nc1ccccc1Cn1c2c(c3ccccc31)C[C@@]1(O)C3Cc4ccc(O)c5c4C1(CCN3CC1CC1)[C@H]2O5 (stereo partly specified)
READOUT_KIND: IC50 ratio
VAL: 1.3
//
COMPOUND: Oc1ccc2c3c1O[C@H]1c4c(c5ccccc5n4Cc4ccccc4)C[C@@]4(O)C(C2)N(CC2CC2)CCC314 (stereo partly specified)
READOUT_KIND: IC50 ratio
VAL: 0.4
//
COMPOUND: Oc1ccc2c3c1O[C@H]1c4c(c5ccccc5n4Cc4ccccc4N=C=S)C[C@@]4(O)C(C2)N(CC2CC2)CCC314 (stereo partly specified)
READOUT_KIND: IC50 ratio
VAL: 1.3
//
COMPOUND: O=C(CBr)Nc1ccc(Cn2c3c(c4ccccc42)C[C@@]2(O)C4Cc5ccc(O)c6c5C2(CCN4CC2CC2)[C@H]3O6)cc1 (stereo partly specified)
READOUT_KIND: IC50 ratio
VAL: 0.9
//
COMPOUND: O=C(CBr)Nc1cccc(Cn2c3c(c4ccccc42)C[C@@]2(O)C4Cc5ccc(O)c6c5C2(CCN4CC2CC2)[C@H]3O6)c1 (stereo partly specified)
READOUT_KIND: IC50 ratio
VAL: 0.9

###

Target: Delta-type opioid receptor (Mus musculus)
Test: Antagonistic activity against opioid delta receptor in mouse vas deferens after 30 min. IC50 ratio determined without washing (prewash).
Type: functional
Under this convention, criterion met denotes IC50 ratio strictly below 50 and criterion not met denotes IC50 ratio at or above 50.

COMPOUND: Oc1ccc2c3c1O[C@H]1c4c(c5ccccc5n4Cc4ccccc4N=C=S)C[C@@]4(O)C(C2)N(CC2CC2)CCC314 (stereo partly specified)
CATEGORY: criterion not met
//
COMPOUND: Oc1ccc2c3c1O[C@H]1c4c(c5ccccc5n4Cc4ccc(N=C=S)cc4)C[C@@]4(O)C(C2)N(CC2CC2)CCC314 (stereo partly specified)
CATEGORY: criterion met
//
COMPOUND: CC(=O)Nc1cccc(Cn2c3c(c4ccccc42)C[C@@]2(O)C4Cc5ccc(O)c6c5C2(CCN4CC2CC2)[C@H]3O6)c1 (stereo partly specified)
CATEGORY: criterion met
//
COMPOUND: CC(=O)Nc1ccc(Cn2c3c(c4ccccc42)C[C@@]2(O)C4Cc5ccc(O)c6c5C2(CCN4CC2CC2)[C@H]3O6)cc1 (stereo partly specified)
CATEGORY: criterion met
//
COMPOUND: CC(=O)Nc1ccccc1Cn1c2c(c3ccccc31)C[C@@]1(O)C3Cc4ccc(O)c5c4C1(CCN3CC1CC1)[C@H]2O5 (stereo partly specified)
CATEGORY: criterion not met

Cited source for all entries: ChEMBL document CHEMBL1128299
